Record form. Attribute: kinase still bound, per cent of control. Fill in for each entry.
- Assayed Target: UniProt:P32298
- Sequence (P32298 whole entry, looked up): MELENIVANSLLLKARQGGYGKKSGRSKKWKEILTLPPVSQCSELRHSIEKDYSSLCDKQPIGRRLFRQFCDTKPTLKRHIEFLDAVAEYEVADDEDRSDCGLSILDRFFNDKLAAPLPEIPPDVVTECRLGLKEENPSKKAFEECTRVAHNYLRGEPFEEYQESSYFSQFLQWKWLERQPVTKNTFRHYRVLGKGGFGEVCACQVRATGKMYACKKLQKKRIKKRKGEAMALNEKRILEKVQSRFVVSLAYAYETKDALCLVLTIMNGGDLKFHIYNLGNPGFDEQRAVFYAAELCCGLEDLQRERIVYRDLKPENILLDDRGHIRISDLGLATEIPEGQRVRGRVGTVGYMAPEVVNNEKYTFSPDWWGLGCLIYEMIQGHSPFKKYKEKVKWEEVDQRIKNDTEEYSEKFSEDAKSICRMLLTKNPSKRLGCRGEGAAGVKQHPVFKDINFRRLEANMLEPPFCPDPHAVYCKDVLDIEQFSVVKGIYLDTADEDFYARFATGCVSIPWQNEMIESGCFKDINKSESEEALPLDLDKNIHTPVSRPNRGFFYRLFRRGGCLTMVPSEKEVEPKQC
- Measurement Protocol: KINOMEscan competition binding
- Assay Context: compound 10.0 µM
One number for each entry, in %.

Field: example entries. Status: answers known.
Fill in kinase still bound, per cent of control for record COc1ccc(-c2ccc3c(N4CCOCC4)nc(N4C[C@@H](C)O[C@@H](C)C4)nc3n2)cc1CO 67

Fill in kinase still bound, per cent of control for record COC(=O)Nc1ccc(-c2nc(N3CCOCC3)c3cnn(C4CCN(C(=O)OC)CC4)c3n2)cc1 100

Fill in kinase still bound, per cent of control for record CCC(=O)N1CCN(c2ccc(-n3c(=O)ccc4cnc5ccc(-c6cnc7ccccc7c6)cc5c43)cc2C(F)(F)F)CC1 90

// moving on: another record for kinase still bound, per cent of control
Fill in kinase still bound, per cent of control for record CC(C)n1nc(-c2cc3cc(O)ccc3[nH]2)c2c(N)ncnc21 83

---

Record form. Attribute: kinase still bound, per cent of control. Fill in for each entry.
- Assayed Target: CLK4 (human)
- Measurement Protocol: KINOMEscan competition binding
- Assay Context: compound 10.0 µM
Give bare numbers, in %.

Field: example entries. Status: answers known.
Fill in kinase still bound, per cent of control for record CC(C)n1nc(-c2cc3cc(O)ccc3[nH]2)c2c(N)ncnc21 9.7

Fill in kinase still bound, per cent of control for record COC(=O)Nc1ccc(-c2nc(N3CCOCC3)c3cnn(C4CCN(C(=O)OC)CC4)c3n2)cc1 94

Fill in kinase still bound, per cent of control for record CCC(=O)N1CCN(c2ccc(-n3c(=O)ccc4cnc5ccc(-c6cnc7ccccc7c6)cc5c43)cc2C(F)(F)F)CC1 49

// moving on: another record for kinase still bound, per cent of control
Fill in kinase still bound, per cent of control for record COc1ccc(-c2ccc3c(N4CCOCC4)nc(N4C[C@@H](C)O[C@@H](C)C4)nc3n2)cc1CO 62

---

Record form. Attribute: kinase still bound, per cent of control. Fill in for each entry.
- Tested on: KIT (human), P10721 [V559D]
- Sequence (P10721 whole entry V559D, looked up): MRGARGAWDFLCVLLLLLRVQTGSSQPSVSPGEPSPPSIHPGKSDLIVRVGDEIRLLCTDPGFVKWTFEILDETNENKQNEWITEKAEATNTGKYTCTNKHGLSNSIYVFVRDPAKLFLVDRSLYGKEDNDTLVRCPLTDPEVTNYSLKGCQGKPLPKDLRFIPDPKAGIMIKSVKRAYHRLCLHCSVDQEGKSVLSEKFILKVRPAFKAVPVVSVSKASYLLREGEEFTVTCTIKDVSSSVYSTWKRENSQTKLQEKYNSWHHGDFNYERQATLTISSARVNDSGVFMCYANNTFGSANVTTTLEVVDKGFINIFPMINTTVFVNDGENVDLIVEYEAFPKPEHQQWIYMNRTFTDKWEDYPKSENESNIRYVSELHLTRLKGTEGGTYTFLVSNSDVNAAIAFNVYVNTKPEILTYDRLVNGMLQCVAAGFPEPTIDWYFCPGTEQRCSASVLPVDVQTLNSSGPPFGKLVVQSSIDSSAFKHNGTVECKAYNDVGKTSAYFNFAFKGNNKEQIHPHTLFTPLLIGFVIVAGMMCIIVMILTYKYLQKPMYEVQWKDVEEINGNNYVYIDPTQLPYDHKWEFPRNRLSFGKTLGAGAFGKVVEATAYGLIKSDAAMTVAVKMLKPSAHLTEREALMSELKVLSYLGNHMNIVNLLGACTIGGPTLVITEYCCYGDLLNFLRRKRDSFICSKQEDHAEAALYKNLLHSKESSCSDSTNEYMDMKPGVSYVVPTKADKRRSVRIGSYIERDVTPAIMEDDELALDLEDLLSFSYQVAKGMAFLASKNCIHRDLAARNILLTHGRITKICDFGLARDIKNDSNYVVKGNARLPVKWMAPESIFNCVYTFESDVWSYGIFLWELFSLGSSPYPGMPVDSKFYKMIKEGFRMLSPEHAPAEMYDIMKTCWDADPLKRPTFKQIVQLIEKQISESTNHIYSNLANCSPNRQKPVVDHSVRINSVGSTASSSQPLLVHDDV
- Measurement Protocol: KINOMEscan competition binding
- Assay Context: compound 10.0 µM
Numeric answer plus unit only.

Field: example entries. Status: answers known.
Fill in kinase still bound, per cent of control for record COc1ccc(-c2ccc3c(N4CCOCC4)nc(N4C[C@@H](C)O[C@@H](C)C4)nc3n2)cc1CO 90%

Fill in kinase still bound, per cent of control for record COC(=O)Nc1ccc(-c2nc(N3CCOCC3)c3cnn(C4CCN(C(=O)OC)CC4)c3n2)cc1 96%

Fill in kinase still bound, per cent of control for record CCC(=O)N1CCN(c2ccc(-n3c(=O)ccc4cnc5ccc(-c6cnc7ccccc7c6)cc5c43)cc2C(F)(F)F)CC1 50%

// moving on: another record for kinase still bound, per cent of control
Fill in kinase still bound, per cent of control for record CC(C)n1nc(-c2cc3cc(O)ccc3[nH]2)c2c(N)ncnc21 0.3%

---

Record form. Attribute: kinase still bound, per cent of control. Fill in for each entry.
- Assayed Target: DYRK1B (human) (UniProt Q9Y463)
- Sequence (Q9Y463 whole entry, looked up): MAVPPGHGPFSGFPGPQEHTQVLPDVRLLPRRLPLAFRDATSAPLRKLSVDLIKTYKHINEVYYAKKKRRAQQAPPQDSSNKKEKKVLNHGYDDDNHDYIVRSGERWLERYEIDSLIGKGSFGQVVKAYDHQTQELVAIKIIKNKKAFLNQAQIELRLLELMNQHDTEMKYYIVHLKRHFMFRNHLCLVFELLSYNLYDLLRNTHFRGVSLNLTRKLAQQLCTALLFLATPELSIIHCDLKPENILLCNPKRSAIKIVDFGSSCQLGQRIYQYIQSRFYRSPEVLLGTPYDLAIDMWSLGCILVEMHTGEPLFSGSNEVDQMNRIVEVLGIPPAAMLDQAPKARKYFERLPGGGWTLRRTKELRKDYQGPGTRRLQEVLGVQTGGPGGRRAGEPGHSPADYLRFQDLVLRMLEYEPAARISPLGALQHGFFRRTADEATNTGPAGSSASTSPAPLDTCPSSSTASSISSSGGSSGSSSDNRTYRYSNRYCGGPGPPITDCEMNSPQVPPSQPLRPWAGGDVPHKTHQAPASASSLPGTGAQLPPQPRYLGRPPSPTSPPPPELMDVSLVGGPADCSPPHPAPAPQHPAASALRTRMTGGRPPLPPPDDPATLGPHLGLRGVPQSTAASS
- Measurement Protocol: KINOMEscan competition binding
- Assay Context: compound 10.0 µM
Answers are plain numbers, in %.

Below is a list of molecules. For each, state its recorded kinase still bound, per cent of control.
1. CCC(=O)N1CCN(c2ccc(-n3c(=O)ccc4cnc5ccc(-c6cnc7ccccc7c6)cc5c43)cc2C(F)(F)F)CC1
2. CC(C)n1nc(-c2cc3cc(O)ccc3[nH]2)c2c(N)ncnc21
3. COc1ccc(-c2ccc3c(N4CCOCC4)nc(N4C[C@@H](C)O[C@@H](C)C4)nc3n2)cc1CO
4. COC(=O)Nc1ccc(-c2nc(N3CCOCC3)c3cnn(C4CCN(C(=O)OC)CC4)c3n2)cc1

[87, 59, 85, 93]

---

- Assayed Target: STK36 (human) (UniProt Q9NRP7)
- Sequence (Q9NRP7 whole entry, looked up): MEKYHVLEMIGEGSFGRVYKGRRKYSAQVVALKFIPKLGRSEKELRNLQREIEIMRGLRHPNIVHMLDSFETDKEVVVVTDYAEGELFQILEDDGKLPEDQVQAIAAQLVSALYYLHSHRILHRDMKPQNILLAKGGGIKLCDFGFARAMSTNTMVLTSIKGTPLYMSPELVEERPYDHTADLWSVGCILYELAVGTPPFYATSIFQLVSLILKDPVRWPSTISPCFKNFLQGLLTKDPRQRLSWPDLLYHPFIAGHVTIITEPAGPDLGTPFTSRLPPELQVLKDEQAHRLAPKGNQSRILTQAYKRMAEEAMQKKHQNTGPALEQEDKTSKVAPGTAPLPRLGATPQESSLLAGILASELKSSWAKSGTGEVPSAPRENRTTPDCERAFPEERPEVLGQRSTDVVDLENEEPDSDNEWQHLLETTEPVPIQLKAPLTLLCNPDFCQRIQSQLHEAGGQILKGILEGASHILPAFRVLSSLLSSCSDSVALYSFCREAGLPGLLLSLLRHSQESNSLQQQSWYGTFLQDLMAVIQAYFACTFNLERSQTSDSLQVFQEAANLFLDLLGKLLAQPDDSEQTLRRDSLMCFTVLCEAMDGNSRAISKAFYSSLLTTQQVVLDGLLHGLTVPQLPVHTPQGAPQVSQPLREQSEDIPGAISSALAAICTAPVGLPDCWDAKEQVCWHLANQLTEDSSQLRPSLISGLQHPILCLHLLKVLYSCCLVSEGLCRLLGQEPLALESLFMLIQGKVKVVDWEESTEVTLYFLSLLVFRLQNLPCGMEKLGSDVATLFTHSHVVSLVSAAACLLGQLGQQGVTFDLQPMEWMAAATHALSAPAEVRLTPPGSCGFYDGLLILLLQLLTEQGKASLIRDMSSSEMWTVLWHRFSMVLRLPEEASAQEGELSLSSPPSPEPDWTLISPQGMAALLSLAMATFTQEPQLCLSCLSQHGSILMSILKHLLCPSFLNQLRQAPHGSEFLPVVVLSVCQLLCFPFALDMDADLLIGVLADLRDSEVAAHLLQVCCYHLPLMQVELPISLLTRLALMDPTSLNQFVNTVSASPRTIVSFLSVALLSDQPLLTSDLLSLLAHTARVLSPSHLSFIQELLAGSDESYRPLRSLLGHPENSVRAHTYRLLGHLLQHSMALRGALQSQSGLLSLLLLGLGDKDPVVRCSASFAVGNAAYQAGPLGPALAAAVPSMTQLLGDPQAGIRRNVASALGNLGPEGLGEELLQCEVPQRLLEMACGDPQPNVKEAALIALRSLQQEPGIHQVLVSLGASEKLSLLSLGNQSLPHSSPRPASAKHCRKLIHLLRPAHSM
- Measurement Protocol: KINOMEscan competition binding
- Assay Context: compound 10.0 µM
Record form. Attribute: kinase still bound, per cent of control. Fill in for each entry.
Answers are plain numbers, in %.

Field: example entries. Status: answers known.
Fill in kinase still bound, per cent of control for record CCC(=O)N1CCN(c2ccc(-n3c(=O)ccc4cnc5ccc(-c6cnc7ccccc7c6)cc5c43)cc2C(F)(F)F)CC1 17

Fill in kinase still bound, per cent of control for record CC(C)n1nc(-c2cc3cc(O)ccc3[nH]2)c2c(N)ncnc21 100

Fill in kinase still bound, per cent of control for record COc1ccc(-c2ccc3c(N4CCOCC4)nc(N4C[C@@H](C)O[C@@H](C)C4)nc3n2)cc1CO 92

Further cases:
Fill in kinase still bound, per cent of control for record COC(=O)Nc1ccc(-c2nc(N3CCOCC3)c3cnn(C4CCN(C(=O)OC)CC4)c3n2)cc1 91

---

- Assayed Target: MAP2K2 (human)
- Measurement Protocol: KINOMEscan competition binding
- Assay Context: compound 10.0 µM
Reported Metric: kinase still bound, per cent of control (%)
Answers are plain numbers, in %.

Write down the reported kinase still bound, per cent of control (system: MAP2K2 (human)) of CC(C)n1nc(-c2cc3cc(O)ccc3[nH]2)c2c(N)ncnc21 0.4

Write down the reported kinase still bound, per cent of control (system: MAP2K2 (human)) of CCC(=O)N1CCN(c2ccc(-n3c(=O)ccc4cnc5ccc(-c6cnc7ccccc7c6)cc5c43)cc2C(F)(F)F)CC1 100

Below is a list of molecules. For each, state its recorded kinase still bound, per cent of control.
1. COc1ccc(-c2ccc3c(N4CCOCC4)nc(N4C[C@@H](C)O[C@@H](C)C4)nc3n2)cc1CO
2. COC(=O)Nc1ccc(-c2nc(N3CCOCC3)c3cnn(C4CCN(C(=O)OC)CC4)c3n2)cc1

92
100

---

- Assayed Target: PI4KA (human)
pIC50: −log10 of the molar value.
Reported Metric: pIC50

Field: example entries. Status: answers known.
Write down the reported pIC50 (system: PI4KA (human)) of COC(=O)Nc1ccc(-c2nc(N3CCOCC3)c3cnn(C4CCN(C(=O)OC)CC4)c3n2)cc1 < 5.48

Write down the reported pIC50 (system: PI4KA (human)) of COc1ccc(-c2ccc3c(N4CCOCC4)nc(N4C[C@@H](C)O[C@@H](C)C4)nc3n2)cc1CO < 5.00

Write down the reported pIC50 (system: PI4KA (human)) of CCC(=O)N1CCN(c2ccc(-n3c(=O)ccc4cnc5ccc(-c6cnc7ccccc7c6)cc5c43)cc2C(F)(F)F)CC1 < 5.00

Further cases:
Write down the reported pIC50 (system: PI4KA (human)) of CC(C)n1nc(-c2cc3cc(O)ccc3[nH]2)c2c(N)ncnc21 < 5.00

---

- Assayed Target: EPHA3 (human) (UniProt P29320)
- Sequence (P29320 whole entry, looked up): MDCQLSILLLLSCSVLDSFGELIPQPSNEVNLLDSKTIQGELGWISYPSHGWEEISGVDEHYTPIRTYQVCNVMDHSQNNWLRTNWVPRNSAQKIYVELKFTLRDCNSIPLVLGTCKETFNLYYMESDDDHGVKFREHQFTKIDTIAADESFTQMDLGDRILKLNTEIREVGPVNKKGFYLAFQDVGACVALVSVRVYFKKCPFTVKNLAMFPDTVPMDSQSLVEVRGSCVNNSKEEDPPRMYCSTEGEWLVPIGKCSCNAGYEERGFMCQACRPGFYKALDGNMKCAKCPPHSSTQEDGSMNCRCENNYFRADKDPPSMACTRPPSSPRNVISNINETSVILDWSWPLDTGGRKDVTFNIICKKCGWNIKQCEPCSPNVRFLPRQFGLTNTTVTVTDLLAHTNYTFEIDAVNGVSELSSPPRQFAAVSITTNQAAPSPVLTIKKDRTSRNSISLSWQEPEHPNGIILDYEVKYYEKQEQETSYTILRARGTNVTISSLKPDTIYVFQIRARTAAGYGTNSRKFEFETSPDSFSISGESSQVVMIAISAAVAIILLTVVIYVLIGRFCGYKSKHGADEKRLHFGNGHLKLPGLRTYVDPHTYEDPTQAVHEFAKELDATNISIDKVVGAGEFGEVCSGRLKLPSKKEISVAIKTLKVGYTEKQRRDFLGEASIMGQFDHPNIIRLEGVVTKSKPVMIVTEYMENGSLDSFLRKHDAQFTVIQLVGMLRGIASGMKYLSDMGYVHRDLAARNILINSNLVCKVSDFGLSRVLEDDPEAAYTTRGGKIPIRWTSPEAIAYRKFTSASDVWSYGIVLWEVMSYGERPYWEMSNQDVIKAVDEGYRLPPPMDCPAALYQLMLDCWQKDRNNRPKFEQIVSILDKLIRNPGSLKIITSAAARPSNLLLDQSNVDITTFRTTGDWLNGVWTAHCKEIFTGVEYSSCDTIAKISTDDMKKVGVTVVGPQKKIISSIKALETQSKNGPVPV
- Measurement Protocol: KINOMEscan competition binding
- Assay Context: compound 10.0 µM
Record form. Attribute: kinase still bound, per cent of control. Fill in for each entry.
Numbers only, in %.

Field: example entries. Status: answers known.
Fill in kinase still bound, per cent of control for record COC(=O)Nc1ccc(-c2nc(N3CCOCC3)c3cnn(C4CCN(C(=O)OC)CC4)c3n2)cc1 84

Fill in kinase still bound, per cent of control for record CC(C)n1nc(-c2cc3cc(O)ccc3[nH]2)c2c(N)ncnc21 1.5

Fill in kinase still bound, per cent of control for record COc1ccc(-c2ccc3c(N4CCOCC4)nc(N4C[C@@H](C)O[C@@H](C)C4)nc3n2)cc1CO 90

// moving on: another record for kinase still bound, per cent of control
Fill in kinase still bound, per cent of control for record CCC(=O)N1CCN(c2ccc(-n3c(=O)ccc4cnc5ccc(-c6cnc7ccccc7c6)cc5c43)cc2C(F)(F)F)CC1 70

---

- Assayed Target: STK11 (human) (UniProt Q15831)
- Measurement Protocol: KINOMEscan competition binding
- Assay Context: compound 10.0 µM
Record form. Attribute: kinase still bound, per cent of control. Fill in for each entry.
Answers are plain numbers, in %.

Field: example entries. Status: answers known.
Fill in kinase still bound, per cent of control for record CC(C)n1nc(-c2cc3cc(O)ccc3[nH]2)c2c(N)ncnc21 79

Fill in kinase still bound, per cent of control for record CCC(=O)N1CCN(c2ccc(-n3c(=O)ccc4cnc5ccc(-c6cnc7ccccc7c6)cc5c43)cc2C(F)(F)F)CC1 100

Fill in kinase still bound, per cent of control for record COC(=O)Nc1ccc(-c2nc(N3CCOCC3)c3cnn(C4CCN(C(=O)OC)CC4)c3n2)cc1 100

// moving on: another record for kinase still bound, per cent of control
Fill in kinase still bound, per cent of control for record COc1ccc(-c2ccc3c(N4CCOCC4)nc(N4C[C@@H](C)O[C@@H](C)C4)nc3n2)cc1CO 95

---

Record form. Attribute: kinase still bound, per cent of control. Fill in for each entry.
- Assayed Target: UniProt P49840
- Sequence (P49840 whole entry, looked up): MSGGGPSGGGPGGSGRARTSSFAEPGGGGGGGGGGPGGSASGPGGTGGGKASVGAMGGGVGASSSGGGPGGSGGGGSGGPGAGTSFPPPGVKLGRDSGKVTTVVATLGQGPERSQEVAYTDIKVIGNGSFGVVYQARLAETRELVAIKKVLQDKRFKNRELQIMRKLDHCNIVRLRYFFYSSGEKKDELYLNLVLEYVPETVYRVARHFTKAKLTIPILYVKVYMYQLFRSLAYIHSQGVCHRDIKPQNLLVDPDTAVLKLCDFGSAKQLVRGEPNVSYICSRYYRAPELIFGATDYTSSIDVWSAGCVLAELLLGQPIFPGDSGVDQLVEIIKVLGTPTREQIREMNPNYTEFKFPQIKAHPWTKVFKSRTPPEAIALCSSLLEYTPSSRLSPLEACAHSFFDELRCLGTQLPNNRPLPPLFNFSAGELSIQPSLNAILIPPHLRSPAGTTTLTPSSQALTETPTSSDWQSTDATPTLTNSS
- Measurement Protocol: KINOMEscan competition binding
- Assay Context: compound 10.0 µM
Answers are plain numbers, in %.

Fill in kinase still bound, per cent of control for record COC(=O)Nc1ccc(-c2nc(N3CCOCC3)c3cnn(C4CCN(C(=O)OC)CC4)c3n2)cc1 100

Fill in kinase still bound, per cent of control for record COc1ccc(-c2ccc3c(N4CCOCC4)nc(N4C[C@@H](C)O[C@@H](C)C4)nc3n2)cc1CO 100

Fill in kinase still bound, per cent of control for record CCC(=O)N1CCN(c2ccc(-n3c(=O)ccc4cnc5ccc(-c6cnc7ccccc7c6)cc5c43)cc2C(F)(F)F)CC1 93

Further cases:
Fill in kinase still bound, per cent of control for record CC(C)n1nc(-c2cc3cc(O)ccc3[nH]2)c2c(N)ncnc21 74
